Where these numbers come from: PubChem BioAssay

- methodSummary: small molecules captured by biotinylated probe aFGF10 – biochemical, small-molecule microarray, fluorescence 635/667, stem cell growth factor project, primary screen (AID 1071);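 also: score merges 667 nm spot intensity and signal to noise from triplicate slides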
- conditionContext: higher = more signal
parameter: composite z-score
No unit in the answer, please; the number alone is enough.

Please review the entries below; each comes with its answer.
molecule=[N-]=[N+]=NCc1ccccc1[C@@H]1OC(c2ccc(OCCCO)cc2)=N[C@]1(CCS(=O)(=O)c1ccccc1)C(N)=O parameter="composite z-score" val=0.647
molecule=COCCOC(=O)N1C(=O)[C@@]2(c3cc(C#CC4=CCCCC4)ccc31)[C@H](c1ccc(OCCO)cc1)N1[C@H](c3ccccc3)[C@H](c3ccccc3)OC(=O)[C@H]1[C@@H]2C(=O)N1CCc2cc(OC)c(OC)cc2C1 parameter="composite z-score" val=0.666

Summary for this molecule, `CC#CC(=O)Oc1ccc(Br)cc1C=CC(=O)OCC` : composite z-score is 0.0178

Summary for this molecule, C=CC1c2cc(O)c(OC)cc2CCN1Cc1cccc(OC(F)(F)F)c1 (centres undefined) : composite z-score is -0.605

Summary for this molecule, `CC[C@@H]1C=C(C(=O)O)[C@H](c2cccc3ccccc23)N1S(=O)(=O)c1ccc(C)cc1` : composite z-score is 0.184

Summary for this molecule, `O=C(CS)NCCCCCNC(=O)[C@@H]1C[C@@H]2C(=O)NCC(=O)N2[C@@H]1c1cccc(OCCO)c1` : composite z-score is -0.161
